Assay: Distribution coefficient, log D of the compound
Assay type: physicochemical
Conditions: chromatographic
readout.name: logD

Here's what some known entries look like.
INSERT INTO results (structure_notation, obs_value) VALUES
  ('Cc1ccc([C@H](C(=O)NC(C)C)N2C(=O)[C@@H](C3Cc4ccccc4C3)NC(=O)[C@H]2CC(C)C)o1', 3.3),
  ('CC(C)C[C@@H]1C(=O)N[C@H](C2Cc3ccccc3C2)C(=O)N1[C@@H](C(=O)NC(C)C)c1ccc(F)cc1F', 3.4),
  ('CC(C)C[C@@H]1C(=O)N[C@H](C2Cc3ccccc3C2)C(=O)N1[C@@H](C(=O)NC(C)C)c1ccc(Br)s1', 3.7);

a. CC(C)C[C@@H]1C(=O)N[C@H](C2Cc3ccccc3C2)C(=O)N1[C@@H](C(=O)NC(C)C)c1ccc(C(F)(F)F)o1
b. Cc1nc([C@H](C(=O)NC(C)C)N2C(=O)[C@@H](C3Cc4ccccc4C3)NC(=O)[C@H]2CC(C)C)co1
Asked: Endpoint returns whichever of a and b has the numerically higher logD. Use the label to indicate which entry you chose.
Given back: a
